# target.desc: human orexin 1 receptor (hOx1R) (Homo sapiens, UniProt O43613)
# Construct: expressed in transfected cells
# Sequence (O43613 whole entry): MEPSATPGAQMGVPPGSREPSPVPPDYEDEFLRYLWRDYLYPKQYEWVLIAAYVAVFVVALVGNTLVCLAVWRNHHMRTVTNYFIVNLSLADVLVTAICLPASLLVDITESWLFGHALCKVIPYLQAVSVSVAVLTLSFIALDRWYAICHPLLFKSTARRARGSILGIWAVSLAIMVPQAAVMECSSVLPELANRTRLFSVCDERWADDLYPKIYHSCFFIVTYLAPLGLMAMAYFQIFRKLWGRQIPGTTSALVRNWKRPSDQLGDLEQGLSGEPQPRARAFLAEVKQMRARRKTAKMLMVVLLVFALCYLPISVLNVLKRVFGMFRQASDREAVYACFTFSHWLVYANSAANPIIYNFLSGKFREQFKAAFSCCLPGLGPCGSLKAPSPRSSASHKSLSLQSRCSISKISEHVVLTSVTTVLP
# protocol.details: Radioligand binding assay ([125I]orexin A competition), hOx1R
# condition.context: CHO or HEK cell membranes, 1 h room temperature
pKd: −log10 of the molar value.
property.measured: pKd

> print(dat)
                                    compound                               target.desc  operator  measured.result
 1  COc1ccc(C(=O)N(C)[C@H](CCNC(=O)c2nc3ccccc3n2C)Cc2ccccc2)cc1OC  human orexin 1 receptor (hOx1R) (Homo sapiens, UniProt O43613)         =             7.23
 2  CN(C(=O)c1ccccc1)[C@H](CCNC(=O)c1ccc2c(c1)OCO2)Cc1ccccc1  human orexin 1 receptor (hOx1R) (Homo sapiens, UniProt O43613)         =             5.51
 3  COc1cccc(C(=O)N(C)[C@H](CCNC(=O)c2cccn2C)Cc2ccccc2)c1  human orexin 1 receptor (hOx1R) (Homo sapiens, UniProt O43613)         =             6.20
 4  CN(C(=O)c1ccc(Br)cc1)[C@H](CCNC(=O)c1ccccn1)Cc1ccccc1  human orexin 1 receptor (hOx1R) (Homo sapiens, UniProt O43613)         =             5.71
 5  CN(C(=O)c1cc(C(F)(F)F)cc(C(F)(F)F)c1)[C@@H](CCNC(=O)c1ccccn1)Cc1ccccc1  human orexin 1 receptor (hOx1R) (Homo sapiens, UniProt O43613)         <             5.00
 6  CN(C(=O)c1cccc(OC(F)(F)F)c1)[C@H](CCNC(=O)c1cccn1C)Cc1ccccc1  human orexin 1 receptor (hOx1R) (Homo sapiens, UniProt O43613)         =             5.80
 7  CN(C(=O)c1cc(C(F)(F)F)cc(C(F)(F)F)c1)[C@H](CCNC(=O)c1ccccn1)Cc1ccccc1  human orexin 1 receptor (hOx1R) (Homo sapiens, UniProt O43613)         =             6.00
 8  CN(C(=O)c1ccc2ccccc2c1)[C@@H](CCNC(=O)c1ccccn1)Cc1ccccc1  human orexin 1 receptor (hOx1R) (Homo sapiens, UniProt O43613)         =             5.65
 9  CN(C(=O)c1ccc2[nH]ccc2c1)[C@H](CCNC(=O)c1nc2ccccc2n1C)Cc1ccccc1  human orexin 1 receptor (hOx1R) (Homo sapiens, UniProt O43613)         =             8.22
10  CN(C(=O)c1cc(F)cc(F)c1)[C@H](CCNC(=O)c1ccccn1)Cc1ccccc1  human orexin 1 receptor (hOx1R) (Homo sapiens, UniProt O43613)         =             6.60
11  CN(C(=O)c1ccc2c(c1)OCO2)[C@H](CCNC(=O)c1cc2ccccc2[nH]1)Cc1ccccc1  human orexin 1 receptor (hOx1R) (Homo sapiens, UniProt O43613)         =             5.97
12  CN(C(=O)c1cccc2ccccc12)[C@H](CCNC(=O)c1ccccn1)Cc1ccccc1  human orexin 1 receptor (hOx1R) (Homo sapiens, UniProt O43613)         =             7.60
13  CN(C(=O)c1ccc2c(c1)OCCO2)[C@H](CCNC(=O)c1ccccn1)Cc1ccccc1  human orexin 1 receptor (hOx1R) (Homo sapiens, UniProt O43613)         =             5.79
14  CN(C(=O)c1cccc2c1OCO2)[C@H](CCNC(=O)c1nc2ccccc2n1C)Cc1ccc(F)cc1  human orexin 1 receptor (hOx1R) (Homo sapiens, UniProt O43613)         <             5.00
15  Cc1nc2sccn2c1C(=O)NCC[C@H](Cc1ccccc1)N(C)C(=O)c1ccccc1  human orexin 1 receptor (hOx1R) (Homo sapiens, UniProt O43613)         =             5.24
16  CN(C(=O)c1ccccc1)[C@H](CCNC(=O)c1cccc2c1OCO2)Cc1ccccc1  human orexin 1 receptor (hOx1R) (Homo sapiens, UniProt O43613)         <             5.00
17  CN(C(=O)c1ccc2c(c1)OCO2)[C@H](CCNC(=O)c1nc2ccccc2n1C)Cc1ccccc1  human orexin 1 receptor (hOx1R) (Homo sapiens, UniProt O43613)         =             6.79
18  CN(C(=O)c1cccc2ccn(C)c12)[C@H](CCNC(=O)c1ccccn1)Cc1ccccc1  human orexin 1 receptor (hOx1R) (Homo sapiens, UniProt O43613)         =             6.07
19  CN(C(=O)c1cccc2c1OCO2)[C@H](CCNC(=O)c1ccccn1)Cc1ccccc1  human orexin 1 receptor (hOx1R) (Homo sapiens, UniProt O43613)         =             5.96
20  CN(C(=O)c1cccc2[nH]ccc12)[C@H](CCNC(=O)c1nc2ccccc2n1C)Cc1ccccc1  human orexin 1 receptor (hOx1R) (Homo sapiens, UniProt O43613)         =             7.77
21  CN(C(=O)c1ccccc1)[C@H](CCNC(=O)c1ccccn1)Cc1ccccc1  human orexin 1 receptor (hOx1R) (Homo sapiens, UniProt O43613)         =             6.45
22  CN(C(=O)c1cc(C(F)(F)F)cc(C(F)(F)F)c1)C(CCNC(=O)c1ccc2c(ccn2C)c1)Cc1ccccc1 (stereo not drawn)  human orexin 1 receptor (hOx1R) (Homo sapiens, UniProt O43613)         =             4.76
23  CN(C(=O)c1ccc2ccccc2c1)[C@H](CCNC(=O)c1nc2ccccc2n1C)Cc1ccccc1  human orexin 1 receptor (hOx1R) (Homo sapiens, UniProt O43613)         =             7.09
24  CCCN(C(=O)c1ccc2c(c1)OCO2)[C@H](CCNC(=O)c1ccccn1)Cc1ccccc1  human orexin 1 receptor (hOx1R) (Homo sapiens, UniProt O43613)         =             6.09
25  Cc1nc2sccn2c1C(=O)NCC[C@H](Cc1ccccc1)N(C)C(=O)c1ccc2c(c1)OCO2  human orexin 1 receptor (hOx1R) (Homo sapiens, UniProt O43613)         =             6.79
26  CCOc1cccc(C(=O)N(C)[C@H](CCNC(=O)c2cccn2C)Cc2ccccc2)c1  human orexin 1 receptor (hOx1R) (Homo sapiens, UniProt O43613)         =             6.69
27  CCCN(C(=O)c1cc(C(F)(F)F)cc(C(F)(F)F)c1)[C@H](CCNC(=O)c1ccccn1)Cc1ccccc1  human orexin 1 receptor (hOx1R) (Homo sapiens, UniProt O43613)         <             5.00
28  Cc1cc(F)cc(C(=O)N(C)[C@H](CCNC(=O)c2cccn2C)Cc2ccccc2)c1  human orexin 1 receptor (hOx1R) (Homo sapiens, UniProt O43613)         =             6.22
29  CN(C(=O)c1ccc(C(F)(F)F)c(C(F)(F)F)c1)[C@H](CCNC(=O)c1ccccn1)Cc1ccccc1  human orexin 1 receptor (hOx1R) (Homo sapiens, UniProt O43613)         =             5.07
30  CN(C(=O)c1ccc2c(c1)OCO2)[C@H](CCNC(=O)c1ccccn1)Cc1ccc(F)cc1  human orexin 1 receptor (hOx1R) (Homo sapiens, UniProt O43613)         =             5.45
